# credit: ChEMBL document CHEMBL3997764

ASSAY_NOTES: Volume of distribution at steady state in BALB/c mouse at 1 mg/kg, iv up to 24 hrs by LC-MS/MS analysis
Type: ADME, organism-based
SETUP_CONDITIONS: in vivo, read-out: Vdss
ASSAY_ENDPOINT: Vd

record_smiles=CCOP(=O)(OCC)C(=Cc1ccccc1)P(=O)(OCC)OCC assay_endpoint=Vd result_value="1.1 L/kg"

====

TARGET_OR_TEST_SYSTEM: CYP2C19 (Homo sapiens)
Sequence (P33261 whole entry): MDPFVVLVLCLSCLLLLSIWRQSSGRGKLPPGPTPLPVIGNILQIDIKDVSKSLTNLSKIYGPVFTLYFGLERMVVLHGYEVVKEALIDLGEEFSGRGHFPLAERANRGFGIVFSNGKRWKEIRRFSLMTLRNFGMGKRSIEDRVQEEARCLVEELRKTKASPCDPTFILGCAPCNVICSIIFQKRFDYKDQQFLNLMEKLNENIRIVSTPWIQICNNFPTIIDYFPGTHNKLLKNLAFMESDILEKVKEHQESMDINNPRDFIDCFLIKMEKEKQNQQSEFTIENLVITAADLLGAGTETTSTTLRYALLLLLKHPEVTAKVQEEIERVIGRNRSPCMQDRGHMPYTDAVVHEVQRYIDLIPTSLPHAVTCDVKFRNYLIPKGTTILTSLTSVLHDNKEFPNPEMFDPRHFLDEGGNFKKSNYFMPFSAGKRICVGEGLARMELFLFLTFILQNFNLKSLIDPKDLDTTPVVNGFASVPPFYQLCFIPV
ASSAY_NOTES: Inhibition of human recombinant CYP2C19 at 10 uM by fluorescence analysis relative to control
Format: ADME
ASSAY_ENDPOINT: inhibition at 10 µM (%)

record_smiles=CCOP(=O)(OCC)C(=Cc1ccccc1)P(=O)(OCC)OCC measurement_unit=% result_value=0
